Test system: HepG2
Test: GSK_TCMDC: Percent inhibition of human HepG2 cell line. Test compounds present at 10uM.
Type: functional
We label by threshold. Values of Inhibition strictly beneath 20% are 1 (yes). Values of 20% and up are 0 (no).

1) CN(C)CCOc1cccc(-c2cnc(N)c(-c3nc4cc(S(C)(=O)=O)ccc4[nH]3)c2)c1.O=C(O)C(F)(F)F	0 (no)
2) O=C(NCCN1CCC(c2ccncc2)CC1)c1cccc(Nc2nccc(Nc3ccc(Oc4ccccc4)cc3)n2)c1	0 (no)
3) Cc1[nH]c(C)c(-c2ccc(-c3cccc(OC(F)(F)F)c3)nc2)c(=O)c1Cl	0 (no)
4) O=C(Cn1c(CCc2cccc(F)c2F)cc(=O)c2ccccc21)N(Cc1ccc(-c2ccc(C(F)(F)F)cc2)cc1)C1CCN(CCN2CCOCC2)CC1.O=C(O)C(O)C(O)C(=O)O	0 (no)
5) OC(CN(Cc1ccccc1)Cc1ccccc1)Cn1c2ccc(Cl)cc2c2cc(Cl)ccc21 (centres undefined)	1 (yes)
6) NC(=O)c1ccc(-c2ccc3ccnc(N)c3c2)cc1.O=C(O)C(F)(F)F	0 (no)
7) CCCc1ccc(S(=O)(=O)Nc2ccc3c(c2)CCC3)cc1	1 (yes)
8) Br.Oc1cccc(CCNCCCCCCNCCc2ccc(Cl)cc2)c1	0 (no)
9) Cl.c1ccc(COc2ccc(Nc3ncnc4cnc(-c5ccc(CN6CCCCC6)o5)cc34)cc2)cc1	1 (yes)

###

Test system: Plasmodium falciparum
Assay: GSK_TCMDC: Inhibition of Plasmodium falciparum Dd2 in whole red blood cells, using parasite LDH activity as an index of growth. Test compounds present at 2uM
Type: functional
Binary label based on Inhibition with cut-off 40%: below gives True, not below gives False.

1. FC(F)(F)c1ccc2[nH]c(-c3ccc(-c4ccc(CN5CCN(c6ccncc6)CC5)cc4)s3)nc2c1.O=C(O)C(F)(F)F	False
2. CC(=O)Nc1ccc(C(=O)Nc2cccc(-c3csc(-c4nc5ccccc5[nH]4)c3)c2)cn1	False
3. O=C(N/N=C/c1nc2ccccc2[nH]1)c1cccc([N+](=O)[O-])c1	False
4. O=C(/C=C/c1ccc(Cl)c(Cl)c1)N1CCC(CCN2CCC(c3c[nH]c4ccccc34)CC2)CC1	False
5. CC(C)C[C@H](NC(=O)[C@H](Cc1ccccc1)NC(=O)CCN1C(=O)COc2ccc(C(=O)O)cc21)C(=O)NC(CC1CCCCC1)C(O)CC(=O)NCCCn1ccnc1.Cl.O (stereo partly drawn)	True
6. CN(Cc1c(Cl)cnn1C)S(=O)(=O)c1ccc2ccccc2c1	True
7. O=C(/C=C/c1ccc(Cl)c(Cl)c1)NCCCCCN1CCCN(C(=O)Nc2ccc(OC(F)F)cc2)CC1	True

###

Test system: Plasmodium falciparum
Assay: GSK_TCMDC: Inhibition of Plasmodium falciparum Dd2 in whole red blood cells, using parasite LDH activity as an index of growth. Test compounds present at 2uM
Format: functional
quantity_kind: Inhibition (%)

1) CCN(c1ccc(F)cc1)S(=O)(=O)c1cc(Br)cc2c1N(C(=O)C1CC1)CC2	79
2) COc1ccc(CNC(=O)Nc2cc3cc(-c4ccc(CN(C)C)cc4)ccc3n3c(C)nnc23)cc1	80
3) CS(=O)(=O)NCCCNCc1ccc(-c2cccc(-c3nc4cc(F)ccc4[nH]3)c2)cc1.O=C(O)C(F)(F)F	1
4) CCCc1cc(NC2CCN(C)CC2)nc(Nc2ccc(F)cc2)n1	16
5) O=C(N[C@@H](Cc1ccccc1)C(=O)NC1CCCCCC1)c1ccc(O)c(-c2ccc(Cl)c(Cl)c2)c1	99
6) CC(C)CCn1c(Sc2ccc(C#N)c([N+](=O)[O-])c2)nnc1-c1ccc(Cl)cc1	39

Data provenance is ChEMBL document CHEMBL1157539.
